Target: trkA (Rattus norvegicus, UniProt P35739)
Construct: are rat pheochromocytoma cells that bear trkA; host or cells: PC12 rat pheochromocytoma cells
Sequence (P35739 33-799): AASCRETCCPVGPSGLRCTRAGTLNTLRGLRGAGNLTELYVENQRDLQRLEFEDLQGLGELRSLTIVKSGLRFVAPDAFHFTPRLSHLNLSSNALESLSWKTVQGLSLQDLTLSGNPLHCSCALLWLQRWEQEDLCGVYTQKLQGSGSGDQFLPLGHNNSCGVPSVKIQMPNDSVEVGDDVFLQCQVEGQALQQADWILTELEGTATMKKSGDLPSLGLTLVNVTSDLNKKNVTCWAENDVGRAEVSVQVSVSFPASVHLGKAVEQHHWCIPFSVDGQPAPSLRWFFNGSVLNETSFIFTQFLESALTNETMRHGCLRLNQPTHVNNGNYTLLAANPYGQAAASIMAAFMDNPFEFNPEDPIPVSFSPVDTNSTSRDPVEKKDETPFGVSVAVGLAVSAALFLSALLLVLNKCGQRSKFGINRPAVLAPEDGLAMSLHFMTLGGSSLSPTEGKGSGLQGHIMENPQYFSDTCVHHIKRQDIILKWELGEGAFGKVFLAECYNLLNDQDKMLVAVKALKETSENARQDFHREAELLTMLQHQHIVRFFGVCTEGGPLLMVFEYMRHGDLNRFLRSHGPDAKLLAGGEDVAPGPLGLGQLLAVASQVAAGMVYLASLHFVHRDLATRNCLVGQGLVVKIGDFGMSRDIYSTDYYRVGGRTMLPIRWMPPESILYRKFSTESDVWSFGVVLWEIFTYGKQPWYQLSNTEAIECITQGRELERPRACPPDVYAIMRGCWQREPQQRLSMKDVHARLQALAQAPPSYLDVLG
Test: inhibition of NGF-stimulated trk autophosphorylation (tyrosine phosphorylation) in PC12 cells, anti-phosphotyrosine Western blot; note: key: +: Inhibited phosphorylation; -: Did not inhibit phosphorylation
Assay type: cell-based
Settings: 100 nM compound, NGF 50 ng/ml
quantity: trk 100 nM (inhibition of phosphorylation)

These solved cases illustrate the format of a correct answer.
molecule | measured_result
CN1CC2(CC3OC2(C)n2c4ccccc4c4c5c(c6c7ccccc7n3c6c42)C(=O)NC5)OC1=O (stereo not shown) | +
COC(=O)Nc1ccc2c(c1)c1c3c(c4c5ccccc5n5c4c1n2C1CC(O)(C(=O)OC)C5(C)O1)CNC3=O (stereo not shown) | +
CC(=O)NCC1(O)CC2OC1(C)n1c3ccccc3c3c4c(c5c6ccccc6n2c5c31)C(=O)NC4 (stereo not shown) | +
CC12OC(CC1(O)CNC(=O)[C@@H]1CCCN1)n1c3ccccc3c3c4c(c5c6ccccc6n2c5c31)CNC4=O (stereo partly shown) | -
CCSCc1ccc2c(c1)c1c3c(c4c5cc(CO)ccc5n5c4c1n2C1CC(O)(C(=O)OC)C5(C)O1)CNC3=O (stereo not shown) | -

Exam item: What value of trk 100 nM (inhibition of phosphorylation) has been recorded for this entry: CCNC(=O)OCc1ccc2c(c1)c1c3c(c4c5ccccc5n5c4c1n2C1CC(O)(C(=O)OC)C5(C)O1)CNC3=O (stereo not shown)
Marked response: +

Exam item: What value of trk 100 nM (inhibition of phosphorylation) has been recorded for this entry: CC12OC(CC1(O)C=NO)n1c3ccccc3c3c4c(c5c6ccccc6n2c5c31)CNC4=O (stereo not shown)
Marked response: +

Exam item: What value of trk 100 nM (inhibition of phosphorylation) has been recorded for this entry: COC1(CO)CC2OC1(C)n1c3ccccc3c3c4c(c5c6ccccc6n2c5c31)C(=O)NC4 (stereo not shown)
Marked response: +
